Could you please report measured IC50 for the items listed next?
# tested.on: recombinant human transglutaminase 2 (Homo sapiens)
# Sequence (P21980 whole entry): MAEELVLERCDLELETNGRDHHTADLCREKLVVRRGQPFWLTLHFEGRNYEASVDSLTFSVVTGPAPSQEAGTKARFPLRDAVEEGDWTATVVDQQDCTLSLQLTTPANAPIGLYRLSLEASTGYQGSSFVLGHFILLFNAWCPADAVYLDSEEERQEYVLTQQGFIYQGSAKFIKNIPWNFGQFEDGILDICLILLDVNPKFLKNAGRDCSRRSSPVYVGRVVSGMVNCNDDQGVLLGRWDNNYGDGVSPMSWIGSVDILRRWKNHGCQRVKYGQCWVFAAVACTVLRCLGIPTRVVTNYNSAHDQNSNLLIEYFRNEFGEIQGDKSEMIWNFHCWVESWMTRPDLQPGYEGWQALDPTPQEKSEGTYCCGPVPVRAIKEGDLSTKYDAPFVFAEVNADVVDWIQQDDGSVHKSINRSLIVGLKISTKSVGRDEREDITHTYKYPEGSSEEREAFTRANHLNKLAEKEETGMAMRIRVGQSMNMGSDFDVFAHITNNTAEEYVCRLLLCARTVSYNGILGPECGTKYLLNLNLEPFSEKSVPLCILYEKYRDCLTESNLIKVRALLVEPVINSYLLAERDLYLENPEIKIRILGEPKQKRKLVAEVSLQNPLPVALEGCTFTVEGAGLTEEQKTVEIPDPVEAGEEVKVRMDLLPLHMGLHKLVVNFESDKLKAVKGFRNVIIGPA
# experimental.details: Transglutaminase assay: incorporation of dansylcadaverine into dimethylcasein (DCC-assay)
# Format: biochemical
# experimental.conditions: recombinant human TG2 10 nM, dansylcadaverine/dimethylcasein; read-out: IC50 TG2

Previously resolved entries follow.
compound=CCNC(=O)C(=O)CC[C@H](NC(=O)c1cccnn1)C(=O)Nc1cccn(CC(=O)N[C@@H]2C[C@@H]3C=C[C@H]2C3)c1=O reading="150 to 600 nM"
compound=CCNC(=O)C(=O)CC[C@H](NC(=O)c1cn(C)nn1)C(=O)Nc1cccn(CC(=O)N[C@@H]2C[C@H]3CC[C@]2(C)C3(C)C)c1=O reading="150 to 600 nM"
compound="CCNC(=O)C(=O)CC[C@H](NC(=O)c1csc2nc(C)cn12)C(=O)Nc1cccn(CC(=O)NC2C3CC4CC(C3)CC2C4)c1=O (stereo partly drawn)" reading="600 to 3500 nM"
compound="CCNC(=O)C(=O)CC[C@H](NC(=O)c1sc(C(F)(F)F)nc1C)C(=O)Nc1cccn(CC(=O)NC2C3CC4CC(C3)CC2C4)c1=O (stereo partly drawn)" reading="< 150 nM"
compound="CCC(CC)CNC(=O)Cn1cccc(NC(=O)[C@H](CC/C=C/C(=O)OC)NC(=O)c2cncn2C)c1=O [Ref. 2, reference compound]" reading="< 150 nM"

Report IC50 for each item below.
1. CCNC(=O)C(=O)CC[C@H](NC(=O)c1cncn1C)C(=O)Nc1cccn(CC(=O)NC23CC4CC(CC(Br)(C4)C2)C3)c1=O
2. CCNC(=O)C(=O)CC[C@H](NC(=O)c1cncn1C)C(=O)Nc1cccn(CC(=O)NC23CC4CC(CC(CC)(C4)C2)C3)c1=O
3. CCNC(=O)C(=O)CC[C@H](NC(=O)c1cc2ccccc2o1)C(=O)Nc1cccn(CC(=O)NC2C3CC4CC(C3)CC2C4)c1=O (stereo partly drawn)
4. CCNC(=O)C(=O)CC[C@H](NC(=O)[C@@H]1CCCN1C(C)=O)C(=O)Nc1cccn(CC(=O)NC2C3CC4CC(C3)CC2C4)c1=O (stereo partly drawn)
5. CCNC(=O)C(=O)CC[C@H](NC(=O)c1nc(Cl)sc1Cl)C(=O)Nc1cccn(CC(=O)NC2C3CC4CC(C3)CC2C4)c1=O (stereo partly drawn)
6. CCNC(=O)C(=O)CC[C@H](NC(=O)c1ccc2c(c1)CCCN2)C(=O)Nc1cccn(CC(=O)NC23CCC(C2)C3)c1=O
7. CCNC(=O)C(=O)CC[C@H](NC(=O)c1ccc2c(c1)CC(=O)NC2)C(=O)Nc1cccn(CC(=O)NC2(C(=O)O)C3CC4CC2CC(C(F)(F)F)(C4)C3)c1=O (stereo partly drawn)
8. CCNC(=O)C(=O)CC[C@H](NC(=O)c1cn2ccsc2n1)C(=O)Nc1cccn(CC(=O)N[C@@H]2C[C@@H]3CC[C@H]2C3)c1=O

1. 150 to 600 nM
2. 150 to 600 nM
3. < 150 nM
4. 150 to 600 nM
5. 150 to 600 nM
6. 600 to 3500 nM
7. 600 to 3500 nM
8. 600 to 3500 nM

Report IC50 for each item below.
1. CCNC(=O)C(=O)CC[C@H](NC(=O)c1cncn1C)C(=O)Nc1cccn(CC(=O)NC23CC4CC(C2)C(F)(F)C(C4)C3)c1=O
2. CCNC(=O)C(=O)CC[C@H](NC(=O)c1cc2c(F)c(F)ccc2[nH]1)C(=O)Nc1cccn(CC(=O)NC2C3CC4CC(C3)CC2C4)c1=O (stereo partly drawn)

["150 to 600 nM", "< 150 nM"]

Numbers sourced from patent US20240270715A1.
